For each entry below, report its Survival value.
Tested on: Trypanosoma brucei rhodesiense
Test: Antitrypanosomal activity against Trypanosoma brucei rhodesiense STIB900 trypomastigotes infected in NMRI mouse assessed as mouse survival at 10 mg/kg, ip administered from day 3 to day 6 postinfection
Format: functional
Conditions: route intraperitoneal

# annotated cases, reported Survival shown
[
  {
    "compound": "Cl.N=C(N)c1ccc(OCCCCCOc2ccc(C(=N)N)cc2)cc1 [PENTAMIDINE HYDROCHLORIDE]",
    "quantity_name": "Survival",
    "result": ">43.5 days"
  },
  {
    "compound": "COc1cc(C(=N)N)ccc1OCCCCOc1ccc(C(=N)N)cc1OC.Cl.Cl",
    "quantity_name": "Survival",
    "result": "17.5 days"
  },
  {
    "compound": "COc1cc(C2=NCCN2)ccc1OCCCOc1ccc(C2=NCCN2)cc1OC.Cl.Cl",
    "quantity_name": "Survival",
    "result": ">32.8 days"
  }
]

List Survival for every entry below, keeping the order given.
1. Cl.Cl.N=C(N)c1cccc(OCCCOc2cccc(C(=N)N)c2)c1
2. Cl.Cl.Cl.Cl.N=C(N)c1ccc(OCCCCOc2ccc(C(=N)N)cc2Cl)c(Cl)c1

Given back:
[">40 days", "22 days"]

List Survival for every entry below, keeping the order given.
1. COc1cc(C2=NCCN2)ccc1OCCCCCOc1ccc(C2=NCCN2)cc1OC.Cl.Cl
2. CC(C)NC(=N)c1ccc(OCCCOc2ccc(C(=N)NC(C)C)cc2)cc1.Cl.Cl

Given back:
1: >31.8 days; 2: >38.5 days

---

System: L6
Assay: Cytotoxicity against rat L6 cells after 70 hrs by alamar blue assay
Format: cell-based
Conditions: L6, 70 h
Lab note - cut at 20 µM for IC50: yes if strictly below, no if not.

Worked cases, answers included:
[
  {
    "compound_smiles": "Cl.Cl.N=C(N)c1ccc(OCCCCOc2ccc(C(=N)N)cc2)cc1",
    "assigned_label": "yes"
  },
  {
    "compound_smiles": "N=C(N)c1ccc(OCCCCOc2ccc(C(=N)N)cc2[N+](=O)[O-])c([N+](=O)[O-])c1",
    "assigned_label": "no"
  },
  {
    "compound_smiles": "c1cc(OCCCCCOc2cccc(C3=NCCN3)c2)cc(C2=NCCN2)c1",
    "assigned_label": "no"
  },
  {
    "compound_smiles": "CC(C)NC(=N)c1cccc(OCCCCCOc2cccc(C(=N)NC(C)C)c2)c1",
    "assigned_label": "no"
  },
  {
    "compound_smiles": "Cl.Cl.N=C(N)c1ccc(OCCCOc2ccc(C(=N)N)cc2)cc1",
    "assigned_label": "yes"
  },
  {
    "compound_smiles": "c1cc(OCCCOc2cccc(C3=NCCN3)c2)cc(C2=NCCN2)c1",
    "assigned_label": "no"
  },
  {
    "compound_smiles": "CC(C)NC(=N)c1ccc(NCCCCCNc2ccc(C(=N)NC(C)C)cc2)cc1.Cl",
    "assigned_label": "no"
  },
  {
    "compound_smiles": "Cl.Cl.N=C(N)c1cccc(OCCCCOc2cccc(C(=N)N)c2)c1",
    "assigned_label": "yes"
  },
  {
    "compound_smiles": "CNC(=N)c1ccc(OCCCOc2ccc(C(=N)NC)cc2OC)c(OC)c1",
    "assigned_label": "no"
  }
]

Okay, next one:
Asked: # TODO verify IC50 < 20 µM strictly for this molecule: Fc1cc(OCCCCCOc2ccc(C3=NCCN3)c(F)c2)ccc1C1=NCCN1
Given back: no

---

Assay: Selectivity index, ratio of IC50 for rat L6 cells to IC50 for Trypanosoma brucei rhodesiense STIB900 trypomastigotes
Format: toxicity, cell-based
Conditions: read-out: Ratio IC50
quantity_name: selectivity ratio

# annotated cases, reported selectivity ratio shown
[
  {
    "compound_smiles": "Cl.Cl.N=C(N)c1ccc(OCCCOc2ccc(C3=NCCN3)cc2)cc1",
    "selectivity ratio": 3980
  },
  {
    "compound_smiles": "COc1cc(C(=N)N)ccc1OCCCCOc1ccc(C(=N)N)cc1OC.Cl.Cl",
    "selectivity ratio": "> 693"
  },
  {
    "compound_smiles": "N=C(N)c1ccc(OCCCCCOc2ccc(N)cc2)cc1",
    "selectivity ratio": 91
  },
  {
    "compound_smiles": "Cl.Cl.N=C(N)c1ccc(OCCCOc2ccc(C(=N)N)cc2Br)c(Br)c1",
    "selectivity ratio": 337
  }
]

Let's switch to this compound now.
Asked: What does the record list as selectivity ratio for Cl.Cl.Cl.Cl.N=C(N)c1ccc(OCCCOc2ccc(C(=N)N)cc2Cl)c(Cl)c1 ?
Given back: 6200

---

System: Leishmania donovani
Test: Antiprotozoal activity against Leishmania donovani MHOM/SD/62/1S-CL2D axenic amastigotes after 72 hrs
Format: functional, organism-based
Lab note - cut at 40 µM for IC50: Satisfied if strictly below, Not satisfied if not.

[
  {
    "compound_smiles": "Fc1cc(OCCCCCOc2ccc(C3=NCCN3)c(F)c2)ccc1C1=NCCN1",
    "assigned_label": "Not satisfied"
  }
]

Asked: # TODO verify IC50 < 40 µM strictly for this compound: Cl.Cl.N=C(N)c1cccc(OCCCOc2cccc(C(=N)N)c2)c1
Given back: Satisfied

Asked: # TODO verify IC50 < 40 µM strictly for this compound: CC(C)NC(=N)c1cccc(OCCCCCOc2cccc(C(=N)NC(C)C)c2)c1
Given back: Satisfied

Asked: # TODO verify IC50 < 40 µM strictly for this compound: CC(C)NC(=N)c1cccc(OCCCCOc2cccc(C(=N)NC(C)C)c2)c1
Given back: Satisfied

Asked: # TODO verify IC50 < 40 µM strictly for this compound: c1cc(-c2nnn[nH]2)ccc1OCCCCCOc1ccc(-c2nnn[nH]2)cc1
Given back: Not satisfied

Asked: # TODO verify IC50 < 40 µM strictly for this compound: Cl.N=C(N)c1ccc(NCCCCCNc2ccc(C(=N)N)cc2)cc1
Given back: Satisfied

Asked: # TODO verify IC50 < 40 µM strictly for this compound: N/N=C(\N)c1ccc(OCCCCCOc2ccc(/C(N)=N/N)cc2)cc1
Given back: Not satisfied

Asked: # TODO verify IC50 < 40 µM strictly for this compound: CCOC(=O)c1cc(C(=N)N)ccc1OCCCCCOc1ccc(C(=N)N)cc1C(=O)OCC
Given back: Not satisfied

Asked: # TODO verify IC50 < 40 µM strictly for this compound: Cl.Cl.Cl.Cl.N=C(N)c1ccc(OCCCOc2ccc(C(=N)N)cc2Cl)c(Cl)c1
Given back: Satisfied

Asked: # TODO verify IC50 < 40 µM strictly for this compound: COc1cc(C(=N)N)ccc1OCCCCOc1ccc(C(=N)N)cc1OC.Cl.Cl
Given back: Satisfied

---

For each entry below, report its pIC50 value.
Test system: Leishmania donovani
Assay: Antiprotozoal activity against Leishmania donovani MHOM/SD/62/1S-CL2D axenic amastigotes after 72 hrs
Assay type: functional, organism-based
Numbers only, as −log10 of the molar value.

# annotated cases, reported pIC50 shown
[
  {
    "compound_smiles": "Cl.Cl.N=C(N)c1cccc(OCCCCCCOc2cccc(C(=N)N)c2)c1",
    "readout_number": 5.62
  },
  {
    "compound_smiles": "Cl.Cl.N=C(N)c1ccc(OCCCOc2ccc(C3=NCCN3)cc2)cc1",
    "readout_number": 5.53
  },
  {
    "compound_smiles": "N=C(N)c1ccc(OCCCCCOc2ccc(/C(N)=N\\O)cc2)cc1",
    "readout_number": 4.25
  },
  {
    "compound_smiles": "COc1cc(C2=NCCN2)ccc1OCCCCCOc1ccc(C2=NCCN2)cc1OC.Cl.Cl",
    "readout_number": 4.44
  },
  {
    "compound_smiles": "Cl.Cl.Cl.Cl.N=C(N)c1ccc(OCCCCCOc2ccc(C(=N)N)cc2Cl)c(Cl)c1",
    "readout_number": 5.84
  },
  {
    "compound_smiles": "N=C(N)c1ccc(OCCCCCOc2ccc(C(=N)N)cc2[N+](=O)[O-])c([N+](=O)[O-])c1",
    "readout_number": 4.94
  }
]

Let's switch to this compound now.
Asked: What does the record list as pIC50 for CC(C)NC(=N)c1cccc(OCCCCCCOc2cccc(C(=N)NC(C)C)c2)c1 ?
Given back: 4.94

---

System: Leishmania donovani
Assay: Antiprotozoal activity against Leishmania donovani MHOM/SD/62/1S-CL2D axenic amastigotes after 72 hrs
Format: functional, organism-based
pIC50: −log10 of the molar value.
pIC50 vs 5: at or above is true (1), below is false (0).

Worked cases, answers included:
[
  {
    "compound_smiles": "CC(=N)Nc1ccc(OCCCCCOc2ccc(NC(C)=N)cc2)cc1",
    "assigned_label": "false (0)"
  },
  {
    "compound_smiles": "CC(C)NC(=N)c1ccc(OCCCCCOc2ccc(C(=N)NC(C)C)cc2C(=O)O)c(C(=O)O)c1",
    "assigned_label": "false (0)"
  },
  {
    "compound_smiles": "c1cc(OCCCCCCOc2cccc(C3=NCCN3)c2)cc(C2=NCCN2)c1",
    "assigned_label": "false (0)"
  },
  {
    "compound_smiles": "Cl.Cl.c1cc(C2=NCCN2)ccc1OCCCCOc1ccc(C2=NCCN2)cc1",
    "assigned_label": "true (1)"
  },
  {
    "compound_smiles": "COc1cc(C(=N)N)ccc1OCCCCCOc1ccc(C(=N)N)cc1OC.Cl.Cl",
    "assigned_label": "false (0)"
  },
  {
    "compound_smiles": "N=C(N)c1ccc(OCCCCOc2ccc(C(=N)N)cc2[N+](=O)[O-])c([N+](=O)[O-])c1",
    "assigned_label": "false (0)"
  },
  {
    "compound_smiles": "CNC(=N)c1ccc(OCCCOc2ccc(C(=N)NC)cc2OC)c(OC)c1",
    "assigned_label": "false (0)"
  },
  {
    "compound_smiles": "Cl.Cl.N=C(Nc1ccc(OCCCCCOc2ccc(NC(=N)c3ccccc3)cc2)cc1)c1ccccc1",
    "assigned_label": "false (0)"
  },
  {
    "compound_smiles": "CC(C)NC(=N)c1cccc(OCCCOc2cccc(C(=N)NC(C)C)c2)c1",
    "assigned_label": "false (0)"
  },
  {
    "compound_smiles": "CC(C)NC(=N)c1ccc(OCCCCCOc2ccc(C(=N)NC(C)C)c(F)c2)cc1F",
    "assigned_label": "false (0)"
  }
]

Asked: Tell me whether pIC50 is at least 5 here: Cl.Cl.N=C(N)c1ccc(OCCCOc2ccc(C(=N)N)cc2)cc1
Given back: true (1)

Asked: Tell me whether pIC50 is at least 5 here: N=C(N)c1ccc(OCCCOc2ccc(C(=O)O)cc2)cc1
Given back: false (0)
